- system.under.test: Prothrombin (Homo sapiens, UniProt P00734)
pIC50: −log10 of the molar value.

compound: C[C@H](NC(=O)[C@@H](CO)NS(=O)(=O)c1ccccc1)C(=O)NC(Cc1ccc(NC(=N)N)cc1)P(=O)(Oc1ccccc1)Oc1ccccc1 (stereo partly drawn)
pIC50: 5.31

compound: C[C@H](NC(=O)[C@@H](CO)NS(=O)(=O)Cc1ccccc1)C(=O)NC(Cc1ccc(NC(=N)N)cc1)P(=O)(Oc1ccccc1)Oc1ccccc1 (stereo partly drawn)
pIC50: 6.11

compound: Cc1cccc(C(=O)N[C@H](CO)C(=O)N[C@@H](C)C(=O)NC(Cc2ccc(N=C(N)N)cc2)P(=O)(Oc2ccccc2)Oc2ccccc2)c1 (stereo partly drawn)
pIC50: 4.47

compound: CC(=O)Nc1ccc(OP(=O)(Oc2ccc(NC(C)=O)cc2)C(Cc2ccc(N=C(N)N)cc2)NC(=O)[C@H](C)NC(=O)[C@@H](CO)NC(=O)OCc2ccccc2)cc1 (stereo partly drawn)
pIC50: 5.82

compound: COc1ccc(S(=O)(=O)N[C@H](CO)C(=O)N[C@@H](C)C(=O)NC(Cc2ccc(NC(=N)N)cc2)P(=O)(Oc2ccccc2)Oc2ccccc2)cc1 (stereo partly drawn)
pIC50: 5.78

compound: Cc1ccccc1C(=O)N[C@H](CO)C(=O)N[C@@H](C)C(=O)NC(Cc1ccc(NC(=N)N)cc1)P(=O)(Oc1ccccc1)Oc1ccccc1 (stereo partly drawn)
pIC50: 4.80

compound: C[C@H](NC(=O)[C@@H](CO)NC(=O)c1cccs1)C(=O)NC(Cc1ccc(N=C(N)N)cc1)P(=O)(Oc1ccccc1)Oc1ccccc1 (stereo partly drawn)
pIC50: 4.46

compound: C[C@H](NC(=O)[C@@H](CO)NC(=O)c1ccccc1)C(=O)NC(Cc1ccc(N=C(N)N)cc1)P(=O)(Oc1ccccc1)Oc1ccccc1 (stereo partly drawn)
pIC50: 4.66

compound: C[C@H](NC(=O)[C@@H](CO)NS(=O)(=O)c1ccc(Br)cc1)C(=O)NC(Cc1ccc(NC(=N)N)cc1)P(=O)(Oc1ccccc1)Oc1ccccc1 (stereo partly drawn)
pIC50: 5.53

compound: C[C@H](NC(=O)[C@@H](CO)NC(=O)C1C2CC3CC(C2)CC1C3)C(=O)NC(Cc1ccc(NC(=N)N)cc1)P(=O)(Oc1ccccc1)Oc1ccccc1 (stereo partly drawn)
pIC50: 5.22

compound: C[C@H](NC(=O)[C@@H](CO)NC(=O)OCc1ccccc1)C(=O)NC(Cc1ccc(N=C(N)N)cc1)P(=O)(Oc1ccccc1)Oc1ccccc1 (stereo partly drawn)
pIC50: 4.70

compound: C[C@H](NC(=O)[C@@H](CO)NS(=O)(=O)c1cccc2ccccc12)C(=O)NC(Cc1ccc(N=C(N)N)cc1)P(=O)(Oc1ccccc1)Oc1ccccc1 (stereo partly drawn)
pIC50: 5.22

compound: Cc1cccc(C)c1C(=O)N[C@H](CO)C(=O)N[C@@H](C)C(=O)NC(Cc1ccc(NC(=N)N)cc1)P(=O)(Oc1ccccc1)Oc1ccccc1 (stereo partly drawn)
pIC50: 5.20
